Data credit: ChEMBL document CHEMBL1150783

# Tested on: Staphylococcus aureus
# ASSAY INFO: Antibacterial activity against methicillin-susceptible Staphylococcus aureus isolate by CLSI dilution method
# Type: functional
PARAMETER: MIC90 (µg/mL)
Express it in µg/mL; write the number only.

C[C@H]1COc2c(N3CCN(C)CC3)c(F)cc3c(=O)c(C(=O)O)cn1c23.C[C@H]1COc2c(N3CCN(C)CC3)c(F)cc3c(=O)c(C(=O)O)cn1c23.O [LEVOFLOXACIN]: 0.5
CCC[C@@H]1C[C@@H](C(=O)N[C@@H]([C@H]2O[C@H](SC)[C@H](O)[C@@H](O)[C@H]2O)[C@H](C)Cl)N(C)C1 [CLINDAMYCIN]: 0.12
CN(C)[C@@H]1C(O)=C(C(N)=O)C(=O)[C@@]2(O)C(O)=C3C(=O)c4c(O)cccc4[C@@](C)(O)[C@H]3C[C@@H]12 [TETRACYCLINE]: 32

Field: next compound
## Input If you can, please state the reported MIC90 value of Cc1c(N)cccc1Cn1ccc(OCCc2cccs2)cc1=O [CG-400549] .
## Output 0.5

* * *

# Tested on: Staphylococcus sp.
# ASSAY INFO: Antibacterial activity against methicillin-susceptible coagulase-negative Staphylococcus sp. by CLSI dilution method
# Assay type: functional
Parameter: MIC90. Scope: all listed entries.
Give the value; after it, write the unit.

Answered examples (2):
Cc1c(N)cccc1Cn1ccc(OCCc2cccs2)cc1=O: 8 µg/mL
CN(C)[C@@H]1C(O)=C(C(N)=O)C(=O)[C@@]2(O)C(O)=C3C(=O)c4c(O)cccc4[C@@](C)(O)[C@H]3C[C@@H]12: 64 µg/mL

## Input What does the record list as MIC90 for "C[C@H]1COc2c(N3CCN(C)CC3)c(F)cc3c(=O)c(C(=O)O)cn1c23.C[C@H]1COc2c(N3CCN(C)CC3)c(F)cc3c(=O)c(C(=O)O)cn1c23.O" ?
## Output 0.25 µg/mL

## Input Repeat with "Cc1onc(-c2ccccc2)c1C(=O)N[C@@H]1C(=O)N2[C@@H]1SC(C)(C)[C@@H]2C(=O)O"
## Output 0.25 µg/mL

## Input How about this molecule: "CC[C@H]1OC(=O)[C@H](C)[C@@H](O[C@H]2C[C@@](C)(OC)[C@@H](O)[C@H](C)O2)[C@H](C)[C@@H](O[C@@H]2O[C@H](C)C[C@H](N(C)C)[C@H]2O)[C@](C)(O)C[C@@H](C)C(=O)[C@H](C)[C@@H](O)[C@]1(C)O"
## Output 128 µg/mL

## Input Another molecule to check: "CC(=O)NC[C@H]1CN(c2ccc(N3CCOCC3)c(F)c2)C(=O)O1"
## Output 2 µg/mL

## Input Subsequent entry: "CN[C@H](CC(C)C)C(=O)N[C@H]1C(=O)N[C@@H](CC(N)=O)C(=O)N[C@H]2C(=O)N[C@H]3C(=O)N[C@H](C(=O)N[C@H](C(=O)O)c4cc(O)cc(O)c4-c4cc3ccc4O)[C@H](O)c3ccc(c(Cl)c3)Oc3cc2cc(c3O[C@@H]2O[C@H](CO)[C@@H](O)[C@H](O)[C@H]2O[C@H]2C[C@](C)(N)[C@H](O)[C@H](C)O2)Oc2ccc(cc2Cl)[C@H]1O"
## Output 2 µg/mL

## Input What would you report for "CCC[C@@H]1C[C@@H](C(=O)N[C@@H]([C@H]2O[C@H](SC)[C@H](O)[C@@H](O)[C@H]2O)[C@H](C)Cl)N(C)C1" ?
## Output 0.25 µg/mL
